Recorded values, source patent US11590116B2.

# Ki listing for each entry below
Assayed system: recombinant human ALK5 (TGF-βR1) protein (Homo sapiens)
Construct: purchased Life Technologies PR9075A
Sequence (P36897 34-503): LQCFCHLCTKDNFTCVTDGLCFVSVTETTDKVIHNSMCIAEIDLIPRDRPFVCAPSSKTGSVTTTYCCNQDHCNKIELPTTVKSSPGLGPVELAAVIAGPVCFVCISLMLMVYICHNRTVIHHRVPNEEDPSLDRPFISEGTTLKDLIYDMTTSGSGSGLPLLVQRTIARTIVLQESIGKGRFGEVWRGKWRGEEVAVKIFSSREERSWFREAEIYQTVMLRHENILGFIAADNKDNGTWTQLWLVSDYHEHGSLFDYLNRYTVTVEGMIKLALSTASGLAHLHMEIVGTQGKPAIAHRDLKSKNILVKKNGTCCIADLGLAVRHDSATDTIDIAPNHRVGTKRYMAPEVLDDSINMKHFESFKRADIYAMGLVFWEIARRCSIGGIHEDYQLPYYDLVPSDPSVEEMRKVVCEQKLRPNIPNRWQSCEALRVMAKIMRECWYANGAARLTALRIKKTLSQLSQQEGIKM
Protocol summary: Biochemical ALK5 (TGF-βR1) assay to measure pKi (LANCE Ultra ULight kinase assay)
Test context: apparent pKi from pIC50 by Cheng-Prusoff, read-out: ALK5 pKi (converted)

Worked set:
Molecule	Result
Cc1cccc(-c2[nH]ncc2-c2ccc3ncc(C(=O)N4CC(N5CCOCC5)C4)cc3n2)n1 [Compound 352]	3980 to 31600 pM
Cc1cccc(-c2n[nH]cc2-c2ccc3ncc(-c4cnc5n4CCCN5)cc3n2)n1 [Compound 655]	39.8 to 316 pM
Cc1cccc(-c2n[nH]cc2-c2ccc3ncc(NCCN4C(C)CNCC4C)cc3n2)n1 (centres unmarked) [Compound 183]	39.8 to 316 pM
Cc1cccc(-c2[nH]cnc2-c2ccc3ncc(C4=CCNC4)cc3c2)n1 [Compound 429]	39.8 to 316 pM
Cc1cccc(-c2nc3ccccn3c2-c2ccc3ncc(-c4cnn(CCN)c4)cc3n2)n1 [Compound 660]	39.8 to 316 pM

Entry CNCCn1cc(-c2cnc3ccc(-c4c[nH]nc4-c4cccc(C(F)(F)F)n4)nc3c2)cn1 [Compound 237] : reported Ki = ?
< 31.6 pM

Need Ki, item Cc1cccc(-c2n[nH]cc2-c2ccc3ncc(N4CCN[C@@H](C(=O)N(C)C)C4)cc3n2)n1 [Compound 204]
39.8 to 316 pM

Any idea what its Ki is? The molecule is Cc1cccc(-c2n[nH]cc2-c2ccc3ncc(C(=O)NCCN4CCN(C(C)C)CC4)cc3n2)n1 [Compound 378]
39.8 to 316 pM
